What relative viability was measured for each of the following?
Tested on: NCI-H1755
protocol.details: relative viability (nuclei count vs DMSO), 5 days (fraction); higher = more cells survive
experimental.context: first compound 0.08 µM
Answers are plain numbers.

Solved cases (4 shown):
{"compound": "CCCCCCCCCCCC1=C(O)C(=O)C=C(O)C1=O [Embelin] + COc1cc2c(Oc3ccc(NC(=O)C4(C(=O)Nc5ccc(F)cc5)CC4)cc3F)ccnc2cc1OCCCN1CCOCC1 [Foretinib] (partner 0.25 µM)", "relative viability": 0.912}
{"compound": "CCCCCCCCCCCC1=C(O)C(=O)C=C(O)C1=O [Embelin] + CC1(C)CCC(c2ccc(Cl)cc2)=C(CN2CCN(c3ccc(C(=O)NS(=O)(=O)c4ccc(N[C@H](CCN5CCOCC5)CSc5ccccc5)c(S(=O)(=O)C(F)(F)F)c4)cc3)CC2)C1 [Navitoclax] (partner 0.5 µM)", "relative viability": 0.993}
{"compound": "CCCCCCCCCCCC1=C(O)C(=O)C=C(O)C1=O [Embelin] + Cc1cc(Nc2cc(N3CCN(C)CC3)nc(Sc3ccc(NC(=O)C4CC4)cc3)n2)n[nH]1 [Tozasertib] (partner 0.1 µM)", "relative viability": 0.666}
{"compound": "CCCCCCCCCCCC1=C(O)C(=O)C=C(O)C1=O [Embelin] + CCNC(=O)c1noc(-c2cc(C(C)C)c(O)cc2O)c1-c1ccc(CN2CCOCC2)cc1 [Luminespib] (partner 0.01 µM)", "relative viability": 0.257}

We now examine a further compound.
I have this compound here, CCCCCCCCCCCC1=C(O)C(=O)C=C(O)C1=O [Embelin] + CS(=O)(=O)N1CCN(Cc2cc3nc(-c4cccc5[nH]ncc45)nc(N4CCOCC4)c3s2)CC1 [Pictilisib] (partner 1 µM) , and I need its recorded relative viability.
0.502

###

Test system: ChaGo-K-1
protocol.details: relative viability (nuclei count vs DMSO), 5 days (fraction); higher = more cells survive
experimental.context: first compound 8 µM
value.kind: relative viability
Give bare numbers.

Recorded results for 2 compounds are shown here.
{"compound": "CCCCCCCCCCCC1=C(O)C(=O)C=C(O)C1=O [Embelin] + CC1(C)CCC(c2ccc(Cl)cc2)=C(CN2CCN(c3ccc(C(=O)NS(=O)(=O)c4ccc(N[C@H](CCN5CCOCC5)CSc5ccccc5)c(S(=O)(=O)C(F)(F)F)c4)cc3)CC2)C1 [Navitoclax] (partner 0.5 µM)", "relative viability": 0.777}
{"compound": "CCCCCCCCCCCC1=C(O)C(=O)C=C(O)C1=O [Embelin] + CC(=O)c1c(C)c2cnc(Nc3ccc(N4CCNCC4)cn3)nc2n(C2CCCC2)c1=O [Palbociclib] (partner 0.5 µM)", "relative viability": 0.981}

// switching to the query compound
Given CCCCCCCCCCCC1=C(O)C(=O)C=C(O)C1=O [Embelin] + CS(=O)(=O)N1CCN(Cc2cc3nc(-c4cccc5[nH]ncc45)nc(N4CCOCC4)c3s2)CC1 [Pictilisib] (partner 1 µM) , state its recorded relative viability.
0.428

###

Test system: LCLC-97TM1
protocol.details: relative viability (nuclei count vs DMSO), 5 days (fraction); higher = more cells survive
experimental.context: first compound 1.265 µM
Strictly below 0.2 in relative viability: MET. Otherwise: NOT MET.

These solved cases illustrate the format of a correct answer.
{"compound": "Clc1ccc(Nc2nnc(Cc3ccncc3)c3ccccc23)cc1 [Vatalanib] + Nc1ncn([C@H]2C[C@H](O)[C@@H](CO)O2)c(=O)n1 [Decitabine] (partner 2 µM)", "class.assignment": "NOT MET"}
{"compound": "Clc1ccc(Nc2nnc(Cc3ccncc3)c3ccccc23)cc1 [Vatalanib] + C[C@]1(O)C[C@@H](c2nc(-c3ccc4ccc(-c5ccccc5)nc4c3)c3c(N)nccn32)C1 [Linsitinib] (partner 1 µM)", "class.assignment": "MET"}
{"compound": "COc1cc(N2CCC(C(N)=O)CC2)ccc1Nc1nc(N)c(Cl)c(Nc2ccccc2S(=O)(=O)C(C)C)n1 [HG-5-88-01] + Nc1nc2[nH]cc(CCc3ccc(C(=O)N[C@@H](CCC(=O)O)C(=O)O)cc3)c2c(=O)[nH]1 [Pemetrexed] (partner 0.2 µM)", "class.assignment": "MET"}
{"compound": "Clc1ccc(Nc2nnc(Cc3ccncc3)c3ccccc23)cc1 [Vatalanib] + CC(C)C[C@H](NC(=O)[C@H](Cc1ccccc1)NC(=O)c1cnccn1)B(O)O [Bortezomib] (partner 0.002 µM)", "class.assignment": "NOT MET"}

API: query returns whether the compound falls strictly under 0.2 in relative viability. Query: COc1cc(N2CCC(C(N)=O)CC2)ccc1Nc1nc(N)c(Cl)c(Nc2ccccc2S(=O)(=O)C(C)C)n1 [HG-5-88-01] + COc1cccc2cc(-c3nc([C@H]4CC[C@H](C(=O)O)CC4)n4ncnc(N)c34)[nH]c12 [OSI-027] (partner 0.5 µM)
NOT MET
